- Test system: 786-0 renal
- procedure details: NCI-60 one-dose screen, 48 h (100 = growth as untreated, 0 = no growth, -100 = all killed)
- assay conditions: 100 µM
- Experimental: Cells are grown in 96 well plates and exposed to the test compound for 48 hours. Compounds are tested at a single concentration, which is 10^-5 M for most compounds. The reported endpoint is percent growth (GI% or GIPRCNT), where numbers from 0 - 100% represent growth inhibition, and numbers from -100% - 0 represent cell death. For example, a value of 40 represents 60% growth inhibition. A value of 0 means no net growth occurred over the course of the experiment. […]
This is part of a sample that, as a whole, favours compounds with a hit. Of some 83,000 tested, about 20% had one in any assay.
Reported values of growth for individual entries
Please give a number only; it is taken to be in %.

[
  {
    "structure notation": "O=C(O)c1sccc1O",
    "val": 47.6
  },
  {
    "structure notation": "CCc1ccccc1-n1c(N)c(C#N)c(-c2ccc(OC)c(OC)c2)c(C#N)c1=O",
    "val": -9.15
  },
  {
    "structure notation": "CC#C[C@]1(O)CC[C@H]2[C@@H]3CCC4=CC(=O)CCC4=C3[C@@H](c3ccc4c(c3)OCO4)C[C@@]21C",
    "val": -30.5
  }
]

Consider the additional compound presented here.
Would you kindly share the measured growth for COc1ccc(Cl)cc1C(=O)NCCc1ccc(S(=O)(=O)NC(=O)NC2CCCCC2)cc1 ?
75.5

====

- System: MDA-MB-435 melanoma
- procedure details: NCI-60 one-dose screen, 48 h (100 = growth as untreated, 0 = no growth, -100 = all killed)
- assay conditions: 10 µM unless noted
The panel holds about 83,000 compounds, 20% with a hit somewhere; the sample as a whole holds those more often.
Reported values of growth for individual entries
Please give a number only; it is taken to be in %.

Solved cases (2 shown):
[
  {
    "structure notation": "O=C(O)CSCc1nc2ccccc2[nH]1",
    "val": 115
  },
  {
    "structure notation": "Cc1ccc(-c2noc(C)n2)cc1",
    "val": 99
  }
]

Consider the additional molecule presented here.
Would you kindly share the measured growth for Fc1ccccc1Nc1n[nH]c(=S)s1 ?
117

====

Reported values of growth for individual entries
- System: NCI-H226 lung
- procedure details: NCI-60 one-dose screen, 48 h (100 = growth as untreated, 0 = no growth, -100 = all killed)
- assay conditions: 10 µM unless noted
About 83,000 compounds went through this panel and 20% of them were active in at least one assay; those are over-represented in the sample as a whole.
Please give a number only; it is taken to be in %.

Would you kindly share the measured growth for O=C(O)c1cc(C(=O)O)cc([N+](=O)[O-])c1 ?
102

Would you kindly share the measured growth for Cc1cc(C)c(N)c(Br)c1 ?
106

Would you kindly share the measured growth for Nc1ccc2ccc(N)cc2c1 ?
95.7

Would you kindly share the measured growth for COc1cc(C(=O)N/N=C/c2ccc(N(C)C)cc2)cc(OC)c1OC ?
71.9

Would you kindly share the measured growth for Nc1ccc2[nH]c(-c3ccccc3)cc(=O)c2c1 ?
101

Would you kindly share the measured growth for Cc1ccc(-c2noc(CC(=O)c3ccc([N+](=O)[O-])cc3)n2)cc1 ?
92.9

Would you kindly share the measured growth for C[N+](C)(C)CN1C(=O)c2ccccc2C1=O ?
112

Would you kindly share the measured growth for CNC(=O)c1cccnc1 ?
107
